Each entry below lists one item and its recorded Solubility value.
Test: Solubility in PBS
Type: physicochemical
State the answer as a number, implicitly in µM.

Observe how each entry below is paired with its result.
{"columns": ["MOLECULE", "RESULT_NUMBER"],
 "data": [
  ["CCN(CC(=O)O)C[C@@H]1NC(=O)[C@H](CC(=O)O)NC(=O)C2(CCCC=CCCCOC(=O)N3CC[C@@](C(=O)N[C@@H](Cc4ccsc4)C(=O)N[C@@H](Cc4csc5ccccc45)C(=O)N[C@@H](CCC(N)=O)C(N)=O)(C3)NC(=O)[C@H](CC(N)=O)NC(=O)[C@H](Cc3ccccc3)NC(=O)[C@H](C)NC(=O)[C@H](C)NC1=O)CCCC=CC[C@]1(CCCN1C(C)=O)C(=O)N[C@@H](CC(=O)O)C(=O)N[C@@H](CC(C)(C)C)C(=O)N2 (some centres unmarked) [I-965]", 45],
  ["CC(=O)N1CCC[C@]12CC=CCCCC1(CCCC=CCCCOC(=O)N3CC[C@@](C(=O)N[C@@H](Cc4ccccc4)C(=O)N[C@@H](Cc4ccc5ccccc5c4)C(=O)N[C@@H](CCC(N)=O)C(N)=O)(C3)NC(=O)[C@H](CC(C)C)NC(=O)[C@H](Cc3ccccc3)NC(=O)[C@H](C)NC(=O)[C@H](CCCCNC(C)C)NC(=O)[C@H]([C@@H](C)O)NC(=O)[C@H](CC(N)=O)NC1=O)NC(=O)[C@H](C)NC(=O)[C@H](CC(=O)O)NC2=O (some centres unmarked)", 10],
  ["CC(=O)N1CCC[C@]12CC=CCCCC1(CCCC=CCCCCCC[C@@](C)(C(=O)N[C@@H](Cc3ccccc3)C(=O)N[C@@H](Cc3csc4ccccc34)C(=O)N[C@@H](Cc3c[nH]cn3)C(=O)N[C@H](C)C(N)=O)NC(=O)[C@H](CC(N)=O)NC(=O)[C@H](Cc3ccccc3)NC(=O)[C@H](C)NC(=O)[C@H](C)NC(=O)[C@H](CCC(=O)O)NC(=O)[C@H](CC(=O)O)NC1=O)NC(=O)[C@H](CC(C)C)NC(=O)[C@H](CC(=O)O)NC2=O (some centres unmarked)", 10],
  ["CC(=O)N1CCC[C@]12CC=CCCCC1(CCCC=CCCCCCC[C@@](C)(C(=O)N[C@@H](Cc3ccccc3)C(=O)N[C@@H](Cc3csc4ccccc34)C(=O)N[C@@H](Cc3cn(C)cn3)C(N)=O)NC(=O)[C@H](CC(N)=O)NC(=O)[C@H](Cc3ccccc3)NC(=O)[C@H](C)NC(=O)[C@H](C)NC(=O)[C@H](CCC(=O)O)NC(=O)[C@H](CC(=O)O)NC1=O)NC(=O)[C@H](C)NC(=O)[C@H](CC(=O)O)NC2=O (some centres unmarked) [I-478]", 42]
]}

Record CC(=O)N1CCC[C@]12CC=CCCCC1(CCCC=CCCCOC(=O)N3CC[C@@](C(=O)N[C@@H](Cc4ccccc4)C(=O)N[C@@H](Cc4csc5ccccc45)C(=O)N[C@@H](CCC(N)=O)C(N)=O)(C3)NC(=O)[C@H](CC(C)C)NC(=O)[C@H](Cc3ccccc3)NC(=O)[C@H](C)NC(=O)[C@H](C)NC(=O)[C@H](CCC(=O)O)NC(=O)[C@H](CC(=O)O)NC1=O)NC(=O)[C@H](CC(C)(C)C)NC(=O)[C@H](CC(=O)O)NC2=O (some centres unmarked) [I-1073] . Reported Solubility: 31

---

The entries below come with measured IC50 values attached.
Biological target: full-length beta-Catenin (Uniprot ID P35222) (Homo sapiens, UniProt P35222)
Construct: 10 nM full-length beta-Catenin (Uniprot ID P35222)
Sequence (P35222 1-781): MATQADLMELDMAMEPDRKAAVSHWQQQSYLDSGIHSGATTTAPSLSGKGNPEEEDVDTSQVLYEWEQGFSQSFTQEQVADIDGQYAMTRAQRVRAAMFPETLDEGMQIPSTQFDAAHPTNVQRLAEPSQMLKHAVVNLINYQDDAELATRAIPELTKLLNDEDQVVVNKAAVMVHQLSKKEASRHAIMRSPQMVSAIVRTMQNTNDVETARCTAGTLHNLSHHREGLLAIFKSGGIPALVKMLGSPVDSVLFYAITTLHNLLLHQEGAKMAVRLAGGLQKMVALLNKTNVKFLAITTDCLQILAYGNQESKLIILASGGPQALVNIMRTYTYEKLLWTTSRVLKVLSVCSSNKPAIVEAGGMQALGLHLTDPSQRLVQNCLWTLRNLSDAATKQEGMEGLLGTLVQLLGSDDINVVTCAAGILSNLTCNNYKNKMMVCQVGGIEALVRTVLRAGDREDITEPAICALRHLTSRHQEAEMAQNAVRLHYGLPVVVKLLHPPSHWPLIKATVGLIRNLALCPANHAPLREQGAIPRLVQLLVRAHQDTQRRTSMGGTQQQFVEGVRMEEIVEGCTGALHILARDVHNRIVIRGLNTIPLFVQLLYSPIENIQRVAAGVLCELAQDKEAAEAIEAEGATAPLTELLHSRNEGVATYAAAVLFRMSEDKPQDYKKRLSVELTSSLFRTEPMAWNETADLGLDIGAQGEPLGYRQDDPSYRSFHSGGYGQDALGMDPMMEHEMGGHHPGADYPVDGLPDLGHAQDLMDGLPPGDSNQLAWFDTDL
Assay: Fluorescence polarization IC50 (beta-catenin / 5FAM-TCF4 10-53 competition)
Assay type: binding
Settings: fluorescence polarization; read-out: beta-Catenin FP IC50
Write the answer as a number in nM, unit excluded.

{"columns": ["MOLECULE", "RESULT_NUMBER"],
 "data": [
  ["CC(C)C[C@H](NC(=O)[C@]12CCN(C1)C(=O)OCCCCCCCCC1(CCCCCCCC(=O)N3CCC[C@@]3(C)C(=O)N[C@@H](CC(=O)O)C(=O)N1)C(=O)N[C@@H](C)C(=O)N[C@@H](CC(=O)O)C(=O)N[C@@H](CC(=O)O)C(=O)N[C@@H](C)C(=O)N[C@@H](C)C(=O)N[C@@H](Cc1ccccc1)C(=O)N2)C(=O)N[C@@H](Cc1ccsc1)C(=O)N[C@@H](Cc1csc2ccccc12)C(=O)N[C@@H](CCC(N)=O)C(N)=O (some centres unmarked)", 592]
]}

Please examine the following record next.
Record CC(=O)N1CCC[C@]12CC=CCCCC1(CCCC=CCCCOC(=O)N3CC[C@@](C(=O)N[C@@H](Cc4ccccc4Cl)C(=O)N[C@@H](Cc4csc5ccccc45)C(=O)N[C@@H](CC(C)C)C(N)=O)(C3)NC(=O)[C@H](CC(C)C)NC(=O)[C@H](Cc3ccccc3)NC(=O)[C@H](C)NC(=O)[C@H](C)NC(=O)[C@H](CC(=O)O)NC(=O)[C@H](CC(=O)O)NC1=O)NC(=O)[C@H](CC(C)C)NC(=O)[C@H](CC(=O)O)NC2=O (some centres unmarked) [I-1419] . Reported IC50: 152

---

Target: beta-catenin/TCF4 engagement (Homo sapiens)
Construct: expressed in transfected cells; host or cells: HEK293
Assay: Nano-BRET target engagement assay (B-cat-Halo & TCF4-Luc in HEK293 cells)
Assay type: cell-based
Conditions: absolute IC50; read-out: NanoBRET Abs IC50
MEASURED_ATTRIBUTE: pIC50
Recall that pIC50 is obtained by taking minus log10 of the concentration measured in molar.

Solved cases (5 shown):
{"columns": ["COMPOUND", "pIC50"],
 "data": [
  ["CCN(CC[C@@H]1NC(=O)[C@H](CC(=O)O)NC(=O)C2(CCCC=CCCCOC(=O)N3CC[C@@](C(=O)N[C@@H](Cc4ccsc4)C(=O)N[C@@H](Cc4csc5ccccc45)C(=O)N[C@@H](CCC(N)=O)C(N)=O)(C3)NC(=O)[C@H](CC(C)C)NC(=O)[C@H](Cc3ccccc3)NC(=O)[C@H](C)NC(=O)[C@H](C)NC1=O)CCCC=CC[C@]1(CCCN1C(C)=O)C(=O)N[C@@H](CC(=O)O)C(=O)N[C@@H](CC(C)(C)C)C(=O)N2)CC(=O)O (stereo partly drawn)", 4.50],
  ["CC(=O)N1CCC[C@]12CC=CCCCCC1(CCCCC=CCCOC(=O)N3CC[C@@](C(=O)N[C@@H](Cc4ccccc4C(F)(F)F)C(=O)N[C@@H](Cc4csc5ccccc45)C(=O)N[C@@H](C)C(N)=O)(C3)NC(=O)[C@H](CC(C)C)NC(=O)[C@H](Cc3ccccc3)NC(=O)[C@H](C)NC(=O)[C@H](CCC(N)=O)NC(=O)[C@H](Cc3cccc(C(=O)O)c3)NC(=O)[C@H](CC(=O)O)NC1=O)NC(=O)[C@H](CC(C)(C)C)NC(=O)[C@H](CC(=O)O)NC2=O (stereo partly drawn)", 5.11],
  ["CCCC[C@@H]1NC(=O)[C@H](CC(=O)O)NC(=O)[C@]2(CC=CCCCC3(CCCC=CCCCOC(=O)N4CC[C@@](C(=O)N[C@@H](Cc5ccsc5)C(=O)N[C@@H](Cc5csc6ccccc56)C(=O)N[C@@H](CCC(N)=O)C(N)=O)(C4)NC(=O)[C@H](CC(C)C)NC(=O)[C@H](Cc4ccccc4)NC(=O)[C@H](C)NC(=O)[C@H](C)NC(=O)[C@H](CN(CC(=O)O)CC(F)(F)F)NC(=O)[C@H](CC(=O)O)NC3=O)NC1=O)CCCN2C(C)=O (stereo partly drawn)", 5.06],
  ["CC(=O)N1CCC[C@]12CC=CCCCC1(CCCC=CCCCOC(=O)N3CC[C@@](C(=O)N[C@@H](Cc4ccsc4)C(=O)N[C@@H](Cc4csc5ccccc45)C(=O)N[C@@H](CO)C(N)=O)(C3)NC(=O)[C@H](Cc3ccccc3)NC(=O)[C@H](Cc3ccccc3)NC(=O)[C@H](C)NC(=O)[C@H](C)NC(=O)[C@H](Cc3ccccc3C(=O)O)NC(=O)[C@H](CC(=O)O)NC1=O)NC(=O)[C@H](CC(C)(C)C)NC(=O)[C@H](CC(=O)O)NC2=O (single isomer, unassigned) [I-1665]", 5.01],
  ["CC(=O)N1CCC[C@]12CC=CCCCC1(CCCC=CCCCOC(=O)N3CC[C@@](C(=O)N[C@@H](Cc4ccsc4)C(=O)N[C@@H](Cc4csc5ccccc45)C(=O)N[C@@H](CCC(N)=O)C(N)=O)(C3)NC(=O)[C@H](CC(C)C)NC(=O)[C@H](Cc3ccccc3)NC(=O)[C@H](C)NC(=O)[C@H](C)NC(=O)[C@H](Cc3cc(C(=O)O)cc(C(F)(F)F)c3)NC(=O)[C@H](CC(=O)O)NC1=O)NC(=O)[C@H](CC(C)(C)C)NC(=O)[C@H](CC(=O)O)NC2=O (stereo partly drawn)", 5.24]
]}

CC(=O)N1CCC[C@]12CC=CCCCC1(CCCC=CCCCOC(=O)N3CC[C@@](C(=O)N[C@@H](Cc4ccsc4)C(=O)N[C@@H](Cc4c[nH]c5ccccc45)C(=O)N[C@@H](CCC(N)=O)C(N)=O)(C3)NC(=O)[C@H](CC(C)C)NC(=O)[C@H](Cc3ccccc3)NC(=O)[C@H](C)NC(=O)[C@H](C)NC(=O)[C@H](CC(=O)O)NC(=O)[C@H](CC(=O)O)NC1=O)NC(=O)[C@H](CC(C)(C)C)NC(=O)[C@H](CC(=O)O)NC2=O (stereo partly drawn) yielded pIC50 of 4.84

Measured pIC50 of CC(=O)N1CCC[C@]12CC=CCCCC1(CCCC=CCCCOC(=O)N3CC[C@@](C(=O)N[C@@H](Cc4ccsc4)C(=O)N[C@@H](Cc4csc5ccccc45)C(=O)N[C@@H](CO)C(N)=O)(C3)NC(=O)[C@H](Cc3ccccc3)NC(=O)[C@H](Cc3ccccc3)NC(=O)[C@H](C)NC(=O)[C@H](C)NC(=O)[C@H](Cc3ccccc3C(=O)O)NC(=O)[C@H](CC(=O)O)NC1=O)NC(=O)[C@H](CC(C)(C)C)NC(=O)[C@H](CC(=O)O)NC2=O (single isomer, unassigned) [I-1664] : 5.10

Entry CC[C@H](C)[C@@H]1NC(=O)[C@H](CC(=O)O)NC(=O)[C@]2(CC=CCCCC3(CCCC=CCCCCCC[C@@](C)(C(=O)N[C@@H](Cc4ccsc4)C(=O)N[C@@H](Cc4csc5ccccc45)C(=O)N[C@@H](CCC(N)=O)C(N)=O)NC(=O)[C@H](CC(N)=O)NC(=O)[C@H](Cc4ccccc4)NC(=O)[C@H](C)NC(=O)[C@H](C)NC(=O)[C@H](CN(CC(=O)O)CC(F)(F)F)NC(=O)[C@H](CC(=O)O)NC3=O)NC1=O)CCCN2C(C)=O (stereo partly drawn) , pIC50 reported as 4.74

// pIC50 lookup, compound = CC(=O)N1CCC[C@]12CC=CCCCC1(CCCC=CCCCCCC[C@@](C)(C(=O)N[C@@H](Cc3ccccc3)C(=O)N[C@@H](Cc3csc4ccccc34)C(=O)N[C@@H](CCC(N)=O)C(N)=O)NC(=O)[C@H](CCC(N)=O)NC(=O)[C@H](Cc3ccccc3)NC(=O)[C@H](C)NC(=O)[C@H](C)NC(=O)[C@H](CCC(=O)O)NC(=O)[C@H](CC(=O)O)NC1=O)NC(=O)[C@H](CO)NC(=O)[C@H](CC(=O)O)NC2=O (stereo partly drawn) [I-1527] , result: 4.52
